All values here come from PubChem BioAssay (NCI).

- System: LOX IMVI melanoma
- Protocol: NCI-60 one-dose screen, 48 h
- Measurement Conditions: 10 µM unless noted
About 83,000 compounds went through this panel and 20% of them were active in at least one assay; those are over-represented in the sample as a whole. Calls of active or inactive are those of the source. How the source made its calls: active means growth percent below 10; inactive means the rest.
Tick one outcome: active, inactive

Illustrative cases are given below, each with its answer.
In [3]: df
Out[3]:
                                   compound  assigned_label
0  CCCCCCNC(=O)Oc1ccc(/C(=C(/CC)Cc2ccccc2)c2ccc(OCCN(CC)CC)cc2)cc1        inactive
1  CCOC(=O)c1c(O)cc(-c2ccccc2)cc1-c1sc(N(C)Cc2ccccc2)nc1Cl        inactive
2  CCn1cc(C2NC(=O)c3ccccc3N2)c2cccc(C)c21 (centres undefined)        inactive
3  Clc1ccc(C2CC(c3cccc(Nc4ccncc4)c3)=NN2c2ccc(Cl)cc2)cc1 (centres undefined)          active
4  CC(O)/C=C/C=C/C(O)CC/C=C/C(=O)NCC(C)(C)O (centres undefined)        inactive
5  O=C1Nc2ccccc2/C1=C\c1cccc(/C=C2/C(=O)Nc3ccccc32)n1          active

// query How did this test come out for C/C(=C(/c1ccccc1)c1ccc(OCC(O)CN2CCOCC2)cc1)c1ccccc1 (centres undefined) ?
// result inactive

// query Call for entry CC[C@H](CC[C@@H](C)[C@H]1CC[C@H]2[C@@H]3CC=C4C[C@@H](OCCc5nn[nH]n5)CC[C@]4(C)[C@H]3CC[C@]12C)C(C)C :
// result inactive

// query For O=S(=O)(c1ccccc1)N1CCCc2ccccc21 , what call appears in the results of this test?
// result inactive

----------
// values below are reported growth
- Test system: NCI-H23 lung
- Protocol: NCI-60 one-dose screen, 48 h (100 = growth as untreated, 0 = no growth, -100 = all killed)
- Measurement Conditions: 10 µM unless noted
This is part of a sample that, as a whole, favours compounds with a hit. Of some 83,000 tested, about 20% had one in any assay.
Write it as a number; the unit % goes unstated.

Worked examples follow.
In [3]: df
Out[3]:
                                   molecule  recorded_value
0  Cc1cc(C)n(Nc2nc3ccccc3[nH]c2=O)c(=O)c1C#N            89.8
1  O=C(Nc1ccc(Nc2ncccn2)cc1)NC1C=c2ccccc2=CC1 (stereo not given)             104

// query Given the entry CC(=O)OCC(=O)[C@@]1(O)CC[C@H]2[C@@H]3CC(=C(Br)Br)C4=CC(=O)CC[C@]4(C)[C@H]3C(=O)C[C@@]21C , what growth was observed with NCI-H23 lung?
// result 88.6

// query Kindly state the measured growth obtained for Cn1c(COC(=O)NCCn2ccnc2)nc2c(N3CCOCC3)nc(-c3ccccc3)nc21 with NCI-H23 lung.
// result -74.8

// query Please tell me: growth of NC(=O)CN1CCN(c2ccccc2Cl)CC1 , system NCI-H23 lung?
// result 99.7

----------
- System: SK-MEL-2 melanoma
- Protocol: NCI-60 one-dose screen, 48 h
- Measurement Conditions: 10 µM unless noted
This is part of a sample that, as a whole, favours compounds with a hit. Of some 83,000 tested, about 20% had one in any assay. The source made the active and inactive calls. Rule for the calls: active = growth percent below 10; inactive = the rest.
Pick one and only one: TRUE = active, FALSE = inactive

                               smiles_input  assigned_label
0  COc1cc2nc(-c3ccc(C#N)cc3)[nH]c(=O)c2cc1OC           FALSE
1  OC1(c2ccc(Cl)c(C(F)(F)F)c2)CCN(CCCC(c2ccc(F)cc2)c2ccc(F)cc2)CC1            TRUE
2                     CC(=O)OCCCCCNc1ccccc1           FALSE
3  O=C1NC(=O)C(=Cc2cn(Cc3ccccn3)c3ccccc23)C(=O)N1           FALSE

Next, consider the following compound.
// query Test call for this compound, please: O=S(=O)(NCCNc1nccc(-c2c(-c3ccc(F)c(O)c3)nc3occn23)n1)c1ccccc1
// result FALSE

----------
Listing: growth of selected compounds
- Tested on: UACC-62 melanoma
- Protocol: NCI-60 one-dose screen, 48 h (100 = growth as untreated, 0 = no growth, -100 = all killed)
- Measurement Conditions: 10 µM unless noted
This is part of a sample that, as a whole, favours compounds with a hit. Of some 83,000 tested, about 20% had one in any assay.
State just the number; it will be interpreted in %.

// query I have this compound here, CC(=O)O[C@H]1CC[C@@]2(C)[C@@H](CC[C@@H]3[C@@H]2CC[C@@]2(C)[C@H]3CC[C@]2(O)C(C)=O)C1 , and I need its recorded growth.
// result 91

// query Which value of growth has been reported for COc1cccc(CCC(=O)c2cc3c(N)c(C(=O)Nc4ccccc4)sc3nc2C)c1 in the records?
// result 28.3

// query Give its growth value. Item: Nc1ncc(C#Cc2cncc(NC(=O)c3cccc(C(F)(F)F)c3)c2)c2cccnc12
// result 55.7

// query Please give the measured growth for this compound: CN1CCCC1=Nc1ccccc1
// result 91.4

// query What value of measured growth is listed for Cn1ncc2c(Nc3ccccc3Cl)nc(Cl)nc21 ?
// result 87.1

// query growth value for entry CC(=O)Nc1ccc(S(=O)(=O)NC2CCCCC2)cc1
// result 91.4

// query # input compound: CC[C@@]12C=CCN3CC[C@]4(c5cc(NC(=O)COc6cc(OCC(=O)Nc7cc8c(cc7OC)N(C)[C@H]7[C@@](O)(C(=O)OC)[C@H](OC(C)=O)[C@]9(CC)C=CCN%10CC[C@]87[C@@H]%109)cc7oc(-c8ccccc8)cc(=O)c67)c(OC)cc5N(C)[C@@H]4[C@](O)(C(=O)OC)[C@H]1OC(C)=O)[C@H]32 ; wanted: its growth
// result 93.8

// query Need growth, item Cc1cc(C)c(C=O)c(C)c1
// result 108

----------
- Test system: HOP-62 NSCLC
- Protocol: NCI-60 one-dose screen, 48 h
- Measurement Conditions: 10 µM unless noted
This is part of a sample that, as a whole, favours compounds with a hit. Of some 83,000 tested, about 20% had one in any assay. Calls of active or inactive are those of the source. How the source made its calls: active means growth percent below 10; inactive means the rest.
Tick one outcome: Yes = active, No = inactive

>>> df
                                   molecule  assigned_label
0  COc1ccc2c(c1)OC1=C(C(=O)OC1)C2c1cc(OC)c(OC)c(OC)c1 (stereo unspecified)              No

// query What call does the record list for CC(=O)Nc1ccc(C(=O)Nc2cc(-c3ccccc3)ccc2N)cc1 ?
// result No

// query Give the logged outcome of this assay for the following molecule: COc1cc2nc(-c3ccc(C(F)(F)F)cc3)cc(OCCN3CCC(O)CC3)c2cc1OC
// result No

// query Tell me the recorded outcome of this test for O=C1c2ccccc2-c2c1c1c(NCCCO)nc3ccccc3c1n2Cc1ccccc1 .
// result Yes

// query What outcome does the record of this test show for COc1ccc(Cn2nc(-c3ccccc3)c3c2CCc2cnoc2-3)cc1 ?
// result No

// query Entry COc1ccc(C(=O)c2cc3c(N)c(C(=O)Nc4cccc(Cl)c4)sc3nc2C)cc1 : call = ?
// result No

// query Assay outcome for COc1ccc(Nn2c(SCC(=O)Nc3nc(-c4ccc(Cl)cc4)cs3)nc(C)c2C)cc1 : what was it?
// result No

// query Which outcome did this test record for the molecule COc1cc(C(=O)/C=C/c2c(C)n([O-])c3ccc(Cl)cc3[n+]2=O)cc(OC)c1OC ?
// result No

// query Identify the outcome logged in this assay for the molecule shown: COc1cc2nc(-c3ccc(C#N)cc3)[nH]c(=O)c2cc1OC
// result No

----------
- Test system: HCC-2998 colon
- Protocol: NCI-60 one-dose screen, 48 h
- Measurement Conditions: 10 µM unless noted
The panel holds about 83,000 compounds, 20% with a hit somewhere; the sample as a whole holds those more often. The source made the active and inactive calls. How the source made its calls: active means growth percent below 10; inactive means the rest.
Mark one answer only. Choices: TRUE for active, FALSE for inactive

# count of solved cases: 3
Molecule	System Name	Assigned Label
O=C1NC(=S)NC(=O)C1=Cc1cn(Cc2ccccn2)c2ccccc12	HCC-2998 colon	FALSE
C(=C\c1n(Cc2ccc3ccccc3c2)c(-c2ccccc2)c(-c2ccccc2)[n+]1Cc1ccc2ccccc2c1)/c1ccccc1	HCC-2998 colon	TRUE
COc1ccc(C(O)c2cc3c(N)c(C(=O)Nc4cccc(OC)c4)sc3nc2C)cc1 (stereo not drawn)	HCC-2998 colon	TRUE

// query Test call for this molecule, please: Nc1nnc(C(=O)c2cnc3n(c2=O)CCCCC3)s1
// result FALSE

// query Look up the recorded call for O=[N+]([O-])c1cccc(-c2nc(-c3ccc(Cl)cc3Cl)cn2-c2ccccc2)c1 in this test.
// result TRUE

// query GET /call?item= CN1CCN(CCCNc2nccc(-c3c(-c4ccc(F)c(O)c4)nc4sccn34)n2)S1(=O)=O returns the recorded outcome of this test.
// result FALSE

// query What was the test verdict on CC(C)Cc1ccc(C(C)C(=O)NCc2ccc(Cn3c(=O)sn(-c4ccc(Cl)cc4)c3=O)cc2)cc1 (stereo not drawn) ?
// result FALSE

// query Please share the test call associated with COc1ccc(/C=C\c2nc3ccccc3s2)cc1OP(=O)(O)O .
// result FALSE

// query Name the outcome recorded for CSc1nnc2c(=O)n(C)c(=O)n(C)c2n1 in the assay.
// result FALSE
